assay: photoluminescence quantum yield (fraction); solvent given as SMILES; conditions: in ClCCl
Catalogue of compounds with associated photoluminescence quantum yield
Response field accepts a number only; no unit should be typed.

>>> value("C[Si]1(C)c2ccccc2-c2cc3c(cc21)-c1ccccc1[Si]3(C)C")
0.45
>>> value("COC1(OC)C2(Cl)c3nc4cc(-c5cccs5)ccc4nc3C1(Cl)C1C[C@H]3[C@@H](CC12)C1(Cl)c2nc4ccc(-c5cccs5)cc4nc2C3(Cl)C1(OC)OC (some centres undefined)")
0.33

Determine from records and report photoluminescence quantum yield for c1ccc2c(c1)OP1(=NP(Oc3ccc4ccc5cccc6ccc3c4c56)(Oc3ccc4ccc5cccc6ccc3c4c56)=NP(Oc3ccc4ccc5cccc6ccc3c4c56)(Oc3ccc4ccc5cccc6ccc3c4c56)=N1)Oc1ccccc1-2
0.89

Tell us which photoluminescence quantum yield value is on record for COc1ccc2c(c1)CCC1=C(C#Cc3cc4ccccc4c4ccccc34)O[B-](F)(F)[O+]=C12
0.425

Please give the documented photoluminescence quantum yield of c1ccc(-c2nc(-c3ccc(N4c5ccccc5Sc5ccccc54)cc3)nn2-c2ccc(N3c4ccccc4Sc4ccccc43)cc2)nc1
0.0129

Identify the reported photoluminescence quantum yield for the following entry. O=c1c2ccccc2n(-c2ccc(-c3ccc(-n4c5ccccc5c(=O)c5ccccc54)cc3)cc2)c2ccccc12
0.31

Please report photoluminescence quantum yield for the following compound: CN(C)c1ccc(-c2cccc3nsnc23)cc1
0.47

Specify reported photoluminescence quantum yield for the compound shown: CC[N+](CC)=c1ccc2c(C(F)(F)F)c3oc4cc(N)ccc4c3oc-2c1
0.157

Recall and state the measured photoluminescence quantum yield for c1ccc(CSc2c3ccc(=[N+]4CCCCC4)cc-3oc3cc(N4CCCCC4)ccc23)cc1 .
0.79

* * *

Items are presented alongside their recorded photoluminescence quantum yield.
experiment: photoluminescence quantum yield (fraction); solvent given as SMILES; details: in CO

Examples with answers:
>>> value("CN(CC(O)c1cccc(O)c1)c1ccc([N+](=O)[O-])c(C2CC(c3cccc4ccccc34)=NN2c2ccccc2)c1 (stereo not given)")
0.19
>>> value("N#Cc1coc2ccccc2c1=O")
0.003
>>> value("COC(=O)C(Cc1ccc2oc(-c3ccncc3)nc2c1)NC(=O)OC(C)(C)C (stereo not given)")
0.4
>>> value("COC(=O)C(Cc1ccc2oc(-c3ccc(N(C)c4ccccc4)cc3)nc2c1)NC(=O)OC(C)(C)C (stereo not given)")
0.03
>>> value("CC(C)(C)c1ccc(C(C)(C)C)c(N2C(=O)c3cccc4c(-c5ccc(-c6ccc([N+](=O)[O-])cc6)s5)ccc(c34)C2=O)c1")
0.03
>>> value("O=C(O)CC[N+]1=c2cc3c(cc2CCC1)=Cc1c(c2cc4c5c(c2oc1=O)CCCN5CCC4)O3")
0.013
>>> value("Cc1ccccc1/C(C#N)=C/c1ccc(N(C)C)cc1")
0.005
>>> value("CN1C(C(=O)Nc2ccccn2)=C(O)c2sccc2S1(=O)=O")
0.00499

Tell me measured photoluminescence quantum yield for CN(C)c1ccc(/C=C/C=C2\CC/C(=C\c3ccc(N(C)C)cc3)C2=O)cc1 please.
0.11

Give photoluminescence quantum yield for the following molecule: CN(C)CCN(Cc1c2ccccc2cc2ccccc12)c1ccc([N+](=O)[O-])cc1[N+](=O)[O-]
0.0093

For COC(=O)C[C@H](Cc1c[nH]c2ccccc12)NC(=O)[C@H](CC(=O)N[C@@H](CC1=CCc2ccccc21)C(=O)OC)NC(=O)[C@H](Cc1c[nH]c2ccccc12)NC(=O)OC(C)(C)C , write its photoluminescence quantum yield.
0.1

Kindly indicate its recorded photoluminescence quantum yield. Item: CN(C)c1ccc(-c2nc(C#N)c(C#N)n2C)cc1
0.003

Recall and state the measured photoluminescence quantum yield for CCCCCCCCN1c2ccc(C#Cc3ccc(C(F)(F)F)cc3)cc2Sc2cc(C=O)ccc21 .
0.23
